Every entry's value here was drawn from patent US5516777A.

Assay: In vitro drug metabolism in rat liver extract
Format: in vitro ADME, male Wistar rats
Settings: pH 7.4; 15 min., rat liver extract, 37° C.; read-out: Residual amount of test compound, 15 min.
Protocol: 2. In vitro drug metabolism in rat liver extract The resistance of the compound against metabolic degradation by rat liver extract was investigated. The male Wistar rats (weighing about 200 g) were used after fasting for 24 hours. The rat was sacrificed under ether anesthesia, and the livers were removed and were placed onto the ice. […]
measurement-kind: remaining at 0.25 h (%)

[[record]]
compound = "Cc1cc(-c2cnn3c(O)ccnc23)ccc1Sc1ccccc1 [Compound B1, reference compound]"
measurement_kind = "remaining at 0.25 h"
numeric_value = 25.6

[[record]]
compound = "COc1cc(-c2cnn3c(O)ccnc23)ccc1Sc1ccccc1 [Compound B2, reference compound]"
measurement_kind = "remaining at 0.25 h"
numeric_value = 32.9


[1] Cc1cc(-c2cnn3c(O)ncnc23)ccc1Cc1ccccc1
[2] Oc1ncnc2c(-c3ccc(Sc4ccccc4)cc3)cnn12 [Compound A1, reference compound]
Task item: Lab note: check whether 1 or 2 shows the higher recorded remaining at 0.25 h. Answer with the label corresponding to your selection.
Reply: 1
(1: 89.9%, 2: 13.8%)
